Attribution: patent US10822376B2

Task for the reader: assign each of the following substances its reported Thrombin peak time given as FEIBA equivalent activity.
tested on: human FVIII inhibited plasma; assay: Defined Intrinsic Thrombin Generation Assay (DITGA, triggered by FXIa and phospholipids); type: biochemical; conditions: peptide 12.5 μM
Where no end group is shown, it is not given here.
Answers are plain numbers, in mU/ml.

Solved entries (count: 3):
> print(dat)
                              substance  readoutunits  reported
1  Ac-RMKFDVWDLYFEIVW-NH2 [Peptide A01]         mU/ml       138
2           Ac-WDLYFEIVWE [Peptide A06]         mU/ml       750
3     Ac-WDLYFEIVW-ttds-K [Peptide A20]         mU/ml       501

Need Thrombin peak time given as FEIBA equivalent activity for each of these substances.
1. Ac-PMKFDVWDLYFEIVW-NH2 [Peptide A02]
2. Ac-RMDFDVWDLYFEIVW-NH2 [Peptide A03]
3. Ac-VWDLYFEIVW-NH2 [Peptide A19]

[674, 639, 495]

Need Thrombin peak time given as FEIBA equivalent activity for each of these substances.
1. H-ERMEFDVWDLYFEIVW-NH2 [Peptide A09]
2. Ac-WDLYFEIVW-NH2 [Peptide A05]
3. Ac-WDLYFEIVW-ttds-E [Peptide A07]

1. 742
2. 487
3. 585

* * *

test: in vitro; conditions: human, pH 7.4
observable: recovery at 6 h, 10 μM (%)
Answers are plain numbers, in %.

Returns the measured recovery at 6 h, 10 μM for the input compound. Input: CC(=O)CC(c1ccccc1)c1c(O)c2ccccc2oc1=O (stereo not shown)
99.3

* * *

experiment: Acute toxicology in mice; format: in vivo, mouse; details: C57BL/6, mouse, in vivo, ip; 60 minutes following administration; read-out: Max dose within toxicity category: No detected toxicity
Where no end group is shown, it is not given here.
observable: NOAEL at 1 h (mg/kg)
One number for each entry, in mg/kg.

Solved entries (count: 3):
> print(dat)
                              substance    observable  reported
1        Ac-WDLYFEIVW-NH2 [Peptide A05]  NOAEL at 1 h        15
2  Ac-RMKFDVWDLYFEIVW-NH2 [Peptide A01]  NOAEL at 1 h        20
3           Ac-WDLYFEIVWE [Peptide A06]  NOAEL at 1 h        25

Returns the measured NOAEL at 1 h for the input substance. Input: Ac-PMKFDVWDLYFEIVW-NH2 [Peptide A02]
25

* * *

test: in vivo; settings: C57BL/6, mouse, iv
Where no end group is shown, it is not given here.
Task for the reader: assign each of the following substances its reported level at 0.5 h.
Answers are plain numbers, in ng/mL.

Solved entries (count: 3):
> print(dat)
                              substance  reported
1           Ac-WDLYFEIVWE [Peptide A06]      7790
2  Ac-PMKFDVWDLYFEIVW-NH2 [Peptide A02]      1310
3  H-ERMEFDVWDLYFEIVW-NH2 [Peptide A09]        80

Let us examine a further case.
Returns the measured level at 0.5 h for the input substance. Input: Ac-RMKFDVWDLYFEIVW-NH2 [Peptide A01]
115

* * *

experiment: in vivo; details: C57BL/6, mouse, iv
Where no end group is shown, it is not given here.
Task for the reader: assign each of the following substances its reported log10 of level at 0.25 h.
Please interpret these as log10 of level at 0.25 h where level at 0.25 h is in ng/mL.

Solved entries (count: 4):
> print(dat)
                              substance                observable  reported
1  Ac-PMKFDVWDLYFEIVW-NH2 [Peptide A02]  log10 of level at 0.25 h      3.50
2        Ac-WDLYFEIVW-NH2 [Peptide A05]  log10 of level at 0.25 h      2.24
3  Ac-RMKFDVWDLYFEIVW-NH2 [Peptide A01]  log10 of level at 0.25 h      2.66
4  H-ERMEFDVWDLYFEIVW-NH2 [Peptide A09]  log10 of level at 0.25 h      2.04

Let us examine a further case.
Returns the measured log10 of level at 0.25 h for the input substance. Input: Ac-WDLYFEIVWE [Peptide A06]
4.32

* * *

tested on: FVIII inhibited plasma; assay: Defined Dual-Pathway Thrombin Generation Assay (DDPTGA, reagent C high), FVIII inhibited plasma; format: biochemical, human; details: peptide 50 μM; FVIII inhibited plasma
observable: Peak IIa FEIBA EU

Returns the measured Peak IIa FEIBA EU for the input substance. Input: H-ERMEFDVWDLYFEIVW-NH2 [Peptide A09]
8.6 mU/ml

* * *

assay: in vitro; details: mouse, pH 7.4
observable: recovery at 6 h, 10 μM (%)
One number for each entry, in %.

Returns the measured recovery at 6 h, 10 μM for the input molecule. Input: CC(=O)CC(c1ccccc1)c1c(O)c2ccccc2oc1=O (stereo not shown)
88.6

* * *

Task for the reader: assign each of the following substances its reported Peak Time FVIII EU.
system: FVIII deficient plasma; experiment: Defined Dual-Pathway Thrombin Generation Assay (DDPTGA, reagent C high), FVIII deficient plasma; type: biochemical, human; settings: peptide 100 μM; FVIII deficient plasma
Where no end group is shown, it is not given here.

Solved entries (count: 2):
> print(dat)
                           substance          observable    reported
1   PEG5000-WSLYFEIVWE [Peptide A17]  Peak Time FVIII EU   5.9 mU/ml
2  Ac-WDLYFEISW-ttds-E [Peptide A15]  Peak Time FVIII EU  12.7 mU/ml

Let us examine a further case.
Returns the measured Peak Time FVIII EU for the input substance. Input: PEG5000-ERMEFDVWDLYFEIVW-NH2 [Peptide A18]
17.1 mU/ml

* * *

test: physchem; conditions: pH 7.4
Where a SMILES comes first, the peptide text is derived from it. [ ]: non-standard residue; d: D form.
observable: solubility kinetic (µM)
Numbers only, in µM.

Returns the measured solubility kinetic for the input compound. Input: CC[C@@H](C)[C@@H](NC(=O)[C@@H](CO)NC(C)=O)C(=O)N[C@H](CCSC)C(=O)N[C@H](Cc1ccccc1)C(=O)N[C@H](Cc1c[nH]c2ccccc12)C(=O)N[C@H](Cc1ccc(O)cc1)C(=O)N[C@H](CC(=O)O)C(=O)N[C@H](CCC(=O)O)C(=O)N[C@H](Cc1ccc(O)cc1)C(=O)N[C@H](CCC(=O)O)C(N)=O [Peptide B07, Ac-simfwydeye-NH2] (Ac-[dS][dI][dM][dF][dW][dY][dD][dE][dY][dE]-NH2)
195

* * *

assay: in vivo; details: C57BL/6, mouse, iv
Where no end group is shown, it is not given here.
observable: level at 25 min (ng/mL)
Give bare numbers, in ng/mL.

Solved entries (count: 4):
> print(dat)
                              substance  reported
1  Ac-PMKFDVWDLYFEIVW-NH2 [Peptide A02]      1440
2  Ac-RMKFDVWDLYFEIVW-NH2 [Peptide A01]       282
3           Ac-WDLYFEIVWE [Peptide A06]     11300
4        Ac-WDLYFEIVW-NH2 [Peptide A05]        23

Returns the measured level at 25 min for the input substance. Input: H-ERMEFDVWDLYFEIVW-NH2 [Peptide A09]
64

* * *

test system: FVIII deficient plasma; assay: Defined Dual-Pathway Thrombin Generation Assay (DDPTGA, reagent C high), FVIII deficient plasma; type: biochemical, human; details: peptide 50 μM; FVIII deficient plasma
observable: Peak IIa FVIII EU

Hi! What's the reported Peak IIa FVIII EU for Ac-WDLYFEISW-ttds-E [Peptide A15] on FVIII deficient plasma?
4.3 mU/ml

* * *

target: mouse serum albumin (Mus musculus); assay: in vitro; conditions: pH 7.4
Sequence (P07724 25-608): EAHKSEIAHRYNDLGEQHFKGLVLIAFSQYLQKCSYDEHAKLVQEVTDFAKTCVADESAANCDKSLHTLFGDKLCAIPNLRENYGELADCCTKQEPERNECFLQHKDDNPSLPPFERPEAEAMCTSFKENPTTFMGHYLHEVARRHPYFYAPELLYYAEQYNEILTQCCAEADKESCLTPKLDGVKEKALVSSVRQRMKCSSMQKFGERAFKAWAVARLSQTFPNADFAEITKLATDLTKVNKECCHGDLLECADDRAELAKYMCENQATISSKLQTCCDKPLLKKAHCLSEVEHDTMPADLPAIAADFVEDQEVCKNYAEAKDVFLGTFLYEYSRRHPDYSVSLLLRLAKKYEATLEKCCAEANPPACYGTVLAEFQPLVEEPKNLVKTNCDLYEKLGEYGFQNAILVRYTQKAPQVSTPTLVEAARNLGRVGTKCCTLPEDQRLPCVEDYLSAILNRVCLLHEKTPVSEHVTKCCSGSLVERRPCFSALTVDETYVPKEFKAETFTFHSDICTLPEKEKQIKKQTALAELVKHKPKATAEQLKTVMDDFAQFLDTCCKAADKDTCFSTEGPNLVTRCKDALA
observable: recovery at 6 h, 5 μM

Returns the measured recovery at 6 h, 5 μM for the input substance. Input: Ac-RMKFDVWDLYFEIVW-NH2 [Peptide A01]
> 103%

* * *

test: in vivo; conditions: C57BL/6, mouse, iv
Where no end group is shown, it is not given here.
observable: level at 10 min
Please give the number followed by its unit.

> print(dat)
                              substance       observable     reported
1  H-ERMEFDVWDLYFEIVW-NH2 [Peptide A09]  level at 10 min    184 ng/mL
2  Ac-RMKFDVWDLYFEIVW-NH2 [Peptide A01]  level at 10 min    352 ng/mL
3        Ac-WDLYFEIVW-NH2 [Peptide A05]  level at 10 min   2040 ng/mL
4           Ac-WDLYFEIVWE [Peptide A06]  level at 10 min  32600 ng/mL

Let us examine a further case.
Returns the measured level at 10 min for the input substance. Input: Ac-PMKFDVWDLYFEIVW-NH2 [Peptide A02]
7260 ng/mL
